Test system: PC3 (p53−) (Prostate Adenocarcinoma)
EXPERIMENT_NOTES: Cell viability analysis, prostate cancer PC3
Format: cell-based, human
RUN_PARAMETERS: Homo sapiens, 72 h, read-out: cell viability (survival rate), PC3, drug 10 μM, 72 hours, WST-1, OD450 nm
Counter-ions that a name gives are not always drawn. Positions of bridges follow the written chain, without caps; N, C: chain ends. Non-standard residues stand in square brackets, D forms with d. Residues, ends and D or L forms follow the SMILES beside them. *: point of attachment. Ileψ(thiazoline)Cys = CC[C@H](C)[C@H](N)C1=N[C@H](C(=O)*)CS1; dOrn = NCCC[C@@H](N)C(=O)O
MEASURED_ATTRIBUTE: viability at 10 µM (%)
Answer with a number only, understood to be in %.

## Input For the compound shown here, "CN1CCN(c2c(F)cc3c(=O)c(C(=O)O)cn4c3c2OCN4C)CC1" , give the reported viability at 10 µM.
## Output 78.4

## Input Item CC(NC(C)(C)C)C(=O)c1cccc(Cl)c1 (stereo not shown) has what recorded viability at 10 µM?
## Output 62.8

## Input If you can, please state the reported viability at 10 µM value of "Oc1ccc(C=Cc2cc(O)cc(O)c2)cc1" .
## Output 75

## Input // lookup viability at 10 µM for C=C[C@]1(C)C[C@@H](OC(=O)CSC(C)(C)CNC(=O)[C@H](N)C(C)C)[C@]2(C)[C@H](C)CC[C@]3(CCC(=O)[C@H]32)[C@@H](C)[C@@H]1O [Valnemulin HCl]
## Output 83.4

## Input Entry under review: CC[C@H](C)[C@H](N)C1=N[C@H](C(=O)N[C@@H](CC(C)C)C(=O)N[C@H](CCC(=O)O)C(=O)N[C@H](C(=O)N[C@H]2CCCCNC(=O)[C@H](CC(N)=O)NC(=O)[C@@H](CC(=O)O)NC(=O)[C@H](Cc3cnc[nH]3)NC(=O)[C@@H](Cc3ccccc3)NC(=O)[C@H]([C@@H](C)CC)NC(=O)[C@@H](CCCN)NC2=O)[C@@H](C)CC)CS1 [Bacitracin] ({Ileψ(thiazoline)Cys}-L[dE]IK[dOrn]I[dF]H[dD]N; lactam 4-C) . Reported viability at 10 µM?
## Output 70

## Input // query viability at 10 µM value for entry "CC(=O)S[C@@H]1CC2=CC(=O)CC[C@]2(C)[C@H]2CC[C@@]3(C)[C@@H](CC[C@@]34CCC(=O)O4)[C@H]12"
## Output 88.5

## Input Need viability at 10 µM of COc1c(N2C[C@@H]3CCCN[C@@H]3C2)c(F)cc2c(=O)c(C(=O)O)cn(C3CC3)c12 [Moxifloxacin hydrochloride] , thanks.
## Output 69.1

## Input Look at this compound and give its reported viability at 10 µM. "O=c1ccc2ccccc2o1"
## Output 86.3

## Input Request the reported viability at 10 µM associated with "Nc1nc(O)c2ncn(COC(CO)CO)c2n1"
## Output 71.8

## Input Fill in: viability at 10 µM of "Cc1nnc(NS(=O)(=O)c2ccc(N)cc2)s1" is ___
## Output 86

## Input Quick one: viability at 10 µM of "COc1ccc(O)cc1" ?
## Output 68

## Input Quick one: viability at 10 µM of C[N+]1(C)[C@@H]2C[C@@H](OC(=O)C(O)(c3cccs3)c3cccs3)C[C@H]1[C@@H]1O[C@@H]12 [Tiotropium Bromide hydrate] ?
## Output 83.8

## Input Recorded viability at 10 µM of C[C@@H](O)[C@H]1C(=O)N2C(C(=O)[O-])=C(SC3Cn4cnc[n+]4C3)[C@H](C)[C@H]12 (stereo partly shown) , please.
## Output 80.3

## Input Consider the compound shown here: "Nc1c2ccccc2nc2ccccc12" What is its recorded viability at 10 µM?
## Output 38.7

## Input // lookup viability at 10 µM for "CO[C@H]1/C=C/O[C@@]2(C)Oc3c(C)c(O)c4c(O)c(c(/C=N/N5CCN(C6CCCC6)CC5)c(O)c4c3C2=O)NC(=O)/C(C)=C\C=C\[C@H](C)[C@H](O)[C@@H](C)[C@@H](O)[C@@H](C)[C@H](OC(C)=O)[C@@H]1C"
## Output 99.1

## Input Name the recorded viability at 10 µM for CC(NCCc1ccc(O)cc1)C(O)c1ccc(O)cc1 (stereo not shown) [Ritodrine hydrochloride (Yutopar), Ritodrine hydrochloride] .
## Output 113

## Input Please give the measured viability at 10 µM for this compound: CCC[C@@H]1C[C@@H](C(=O)N[C@@H]([C@H]2O[C@H](SC)[C@H](OP(=O)(O)O)[C@@H](O)[C@H]2O)[C@H](C)Cl)N(C)C1 [Clindamycin phosphate]
## Output 40

## Input Reported viability at 10 µM, compound Cc1cc2c(s1)Nc1ccccc1N=C2N1CCN(C)CC1 [Olanzapine (Zyprexa), Olanzapine] : ____
## Output 92.2

## Input Requested field: viability at 10 µM. Item: "O=C(N[C@H](CO)[C@H](O)c1ccc([N+](=O)[O-])cc1)C(Cl)Cl"
## Output 120
